Here, each record is paired with measured IC50 data.
# Tested on: Target C mRNA
# ASSAY DETAILS: Splicing RT-qPCR gene panel, Target C canonical junction (CJ) mRNA
# Format: cell-based, human
# RECORDED CONDITIONS: Homo sapiens, Tables 4A/4B, read-out: Target C (IC50, decrease in CJ mRNA, gene panel)
Where a name gives a salt, the structure may show the parent alone.

COMPOUND | IC50
Cc1cn2cc(NC(=O)c3cc(F)c(N4CCNCC4)c4cn(C)nc34)cc(F)c2n1 [Compound 303] | > 10 µM
CCn1cc2c(N3CCN[C@@H](CO)C3)ccc(C(=O)Nc3cc(F)c4nc(C)cn4c3)c2n1 [Compound 429] | > 10 µM
Cc1cn2cc(NC(=O)c3ccc(N4CCNCC4)c4cn(C5CCOC5)nc34)cc(F)c2n1 (stereo not shown) [Compound 356] | > 10 µM
Cc1cn2cc(NC(=O)c3ccc(N4CC[C@H](N(C)C)C4)c4cn(C)nc34)cc(F)c2n1 (single isomer, unassigned) [Compound 351] | > 10 µM
Cc1cn2nc(NC(=O)c3ccc(N4CCNCC4)c4cc(C)oc34)nc2c(C)n1 [Compound 264] | > 10 µM
Cc1cn2cc(NC(=O)c3ccc(C4CCN(C)CC4)c4cn(C)nc34)cc(F)c2n1 [Compound 209] | 0.1 to 1 µM
Cc1cn2cc(NC(=O)c3ccc(N4CCNCC4)c4c[nH]nc34)cc(Cl)c2n1 [Compound 286] | > 10 µM
CCNC1CCN(c2cc(F)c(C(=O)Nc3cn4cc(C)nc4c(F)c3OC)c3nn(C)cc23)CC1 [Compound 471] | < 0.1 µM
Cc1cn2cc(NC(=O)c3ccc(N4CCC(C)(N)CC4)c4cn(C)nc34)cc(F)c2n1 [Compound 336] | 0.1 to 1 µM
Cn1cc2cc(NC(=O)c3ccc(N4CCNCC4)c4cn(C)nc34)ccc2n1 [Compound 324, hydrochloride] | > 10 µM
Cc1cn2cc(NC(=O)c3ccc(N4CCC(N(C)C)C4)c4cn(C)nc34)cc(F)c2n1 (stereo not shown) [Compound 258] | 1 to 10 µM
Cc1cc(NC(=O)c2ccc(N3CCNCC3)c3cn(C)nc23)cc2cn(C)nc12 [Compound 320] | > 10 µM
Cc1cn2cc(NC(=O)c3ccc(N4CCC5(CC4)CNC5)c4cn(C)nc34)cc(F)c2n1 [Compound 348] | 1 to 10 µM
CCn1cc2c(N3CC[C@H](NC4CC4)C3)ccc(C(=O)Nc3cc(F)c4nc(C)cn4c3)c2n1 [Compound 410] | > 10 µM
Cc1cn2cc(NC(=O)c3ccc(N4CCNCC4)c4cn(C5COC5)nc34)cc(F)c2n1 [Compound 295] | > 10 µM
Cc1cn2cc(NC(=O)c3ccc(N4CCNCC4)c4cn(CC5(O)COC5)nc34)cc(F)c2n1 [Compound 384] | > 10 µM
CC1=NC2C=C(NC(=O)c3ccc(N(C)C4CCN(C)CC4)c4cn(C)nc34)C=C(F)C2=N1 (stereo not shown) [Compound 245] | 0.1 to 1 µM
Cc1cn2cc(NC(=O)c3ccc(N4CCNCC4)c4cc(C)oc34)cc(C)c2n1 [Compound 267] | > 10 µM
CCn1cc2c(N3CCC(C)(NC)CC3)ccc(C(=O)Nc3cc(F)c4nc(C)cn4c3)c2n1 [Compound 423] | 1 to 10 µM
Cc1cn2cc(NC(=O)c3ccc(N4CC5(CNC5)C4)c4cn(C)nc34)cc(F)c2n1 [Compound 242] | 1 to 10 µM
Cc1cn2cc(NC(=O)c3ccc(N4CCNCC4)c4nnn(C)c34)cc(F)c2n1 [Compound 435] | 1 to 10 µM
Cc1cn2cc(NC(=O)c3ccc(C4CCNCC4)c4oc(C)nc34)cc(F)c2n1 [Compound 187] | 1 to 10 µM
CCn1cc2c(N3CC[C@@H](NC)C3)ccc(C(=O)Nc3cc(F)c4nc(C)cn4c3)c2n1 [Compound 469] | > 10 µM
Cc1cn2cc(NC(=O)c3ccc(N4CCNCC4)c4cc(C)oc34)cc(F)c2n1 [Compound 142] | 0.1 to 1 µM
Cc1cn2nc(NC(=O)c3ccc(N4CCNCC4)c4cn(C)nc34)cc(C)c2n1 [Compound 322, hydrochloride] | > 10 µM
Cc1cn2cc(NC(=O)c3ccc(N4CCN[C@H](C)C4)c4cn(C)nc34)cc(F)c2n1 (single isomer, unassigned) [Compound 353] | 1 to 10 µM
CCNC1CCN(c2ccc(C(=O)Nc3cc(F)c4nc(C)cn4c3)c3nn(CC)cc23)CC1 [Compound 380] | 1 to 10 µM
Cc1cn2cc(NC(=O)c3ccc(N4CCN(C)C(C)C4)c4cn(C)nc34)cc(F)c2n1 (stereo not shown) [Compound 229] | 1 to 10 µM
Cc1cn2cc(NC(=O)c3ccc(N4CCNCC4)c4cn(CC5CCO5)nc34)cc(F)c2n1 (stereo not shown) [Compound 338] | > 10 µM
CCN1CCC(c2ccc(C(=O)Nc3cc(F)c4nc(C)cn4c3)c3nn(C)cc23)CC1 [Compound 210] | 1 to 10 µM
CCc1nc2c(C(=O)Nc3cc(F)c4nc(C)cn4c3)ccc(N3CCNCC3)c2s1 [Compound 945] | 1 to 10 µM
